Record form. Attribute: protein stability index. Fill in for each entry.
# method: protein stability index of a GFP-peptide fusion (yeast GPS) (PSI 1-4); higher = more stable; sorted into four equal gates, so the index is relative within each strain
# studyConditions: pdr5∆

LQNCCIIDVGTHHTDII [ARP9] ... 1.9
EFIPHSTEYMMQFAKSK [RPN6] ... 3.28
DALQDVEESSEKKQKTE [DPB4] ... 3.42

Report protein stability index for every entry below.
1. LEDLKNTKEIAVDLEHH [RRP6]
2. SLLLAHFFSKSCSFFAK [NUT1]
3. NGQYAAFVKDMQVYLVP [RPC37]

1. 2.54
2. 1.62
3. 1.52

* * *

Would you kindly list protein stability index for each of these sequences?
# method: protein stability index of a GFP-peptide fusion (yeast GPS) (PSI 1-4); higher = more stable; sorted into four equal gates, so the index is relative within each strain
# studyConditions: ubr1∆
Answers are plain numbers.

// known answers, use as guide
GAMTPEEIFFKSVRILK [RPC40] ... 3.22
SDLLVAPPLENENSNCL [YML103C/NUP188] ... 3.18
NDKSEVLKVYSMINNSN [SRB8] ... 2.63
KNLKPQEQLKNVKNDVS [YIL149C/MLP2] ... 3.01
FQKFLTGHPKGAAGAWM [FAS2] ... 1.56

# batch: return protein stability index for each of the 2 sequences below
1. RHSNALVDILPPDSDSS [RPT3]
2. SLKCTDPYELKGEVVLV [ITC1]

1. 2.47
2. 2.96

* * *

Would you kindly list protein stability index for each of these sequences?
# method: protein stability index of a GFP-peptide fusion (yeast GPS) (PSI 1-4); higher = more stable; sorted into four equal gates, so the index is relative within each strain
# studyConditions: pdr5∆
Answers are plain numbers.

KSKEDMKQLKFFKPLDY [SNU114] ... 3.08
ISLIPELSVVLSGIIQD [RRI2] ... 1.76
VSFDFNGVPGQALDAVR [MED8] ... 3.36
ASSTPIPVLGKPTDATG [YOR098C/NUP1] ... 2.88
DVSPLRRVNQAIALLTI [RPS5] ... 2.05

Give protein stability index for all sequences that follow.
1. CLFENDLQRLKPLGLDR [ITC1]
2. STTMDGANDLGFTASVS [MED1]
3. DPDKLKPNDLVGVNKDS [RPT5]
4. VTPTKTEVIIRATRTQD [RPS3]
5. VPGMPAPIKKIIERYIK [PRP8]
6. LDNLTEDPNSAAFDEVE [DIS3]
7. LSLTLNTHYHADYRLIL [SNF2]

3.19
3.1
3.32
1.91
3.23
3.3
2.98

For every listed record, write down its protein stability index.
1. GAAPYAAKLKQTENDLK [RPT1]
2. DGHLQFLNDVIPTTKNL [DLS1]
3. SENAPSASSKEFNFTNL [YAR002W/NUP60]
4. PQGFSSVERGRKRAHSL [REC8]

[2.35, 3.05, 2.94, 3.4]

* * *

# method: protein stability index of a GFP-peptide fusion (yeast GPS) (PSI 1-4); higher = more stable; sorted into four equal gates, so the index is relative within each strain
# studyConditions: doa10∆
Given measured protein stability index, output TRUE if it is greater than or equal to 3 and FALSE if not.

SMPLEQLIPIILRQRGP [SRB4] ... FALSE

Could you tell me if the measured protein stability index of SRDLWCFSINDDPVPTP [SSN2] reaches 3 or more?
FALSE

Has LTGSPNNPLVQKKNFLF [ARP7] a recorded protein stability index greater than or equal to 3?
FALSE

Quick check: does SSLSAIIVFGYPESISN [YDL088C/ASM4] have protein stability index greater than or equal to 3?
FALSE

Answer whether protein stability index of ATYSNEFKCMSVITAQQ [YGL100W/SEH1] is greater than or equal to 3.
FALSE

* * *

# method: protein stability index of a GFP-peptide fusion (yeast GPS) (PSI 1-4); higher = more stable; sorted into four equal gates, so the index is relative within each strain
# studyConditions: san1∆
metric: protein stability index
Answers are plain numbers.

Consider the following items and state reported protein stability index for each.
1. LAAERKVTSTLLEQDTS [PRE9]
2. PPSKHSTLTLSDSEDSD [ESC2]
3. SLRETNTTDPLGHTKAA [SIR2]
4. ADLSSSEEEEDEEENGS [SSN2]
5. LSGKFSTIPTRENGKGG [ROX3]

2.65
2.59
2.85
3.59
3.01

// input: 5 sequences below; output: protein stability index for each
1. YDPKDGLYKMMEERDGA [AAR2]
2. TSGTNIAGTFNVGKPDQ [YOR098C/NUP1]
3. ATHLPKDNVEHLVMRAI [RPN9]
4. FQLLEPLSTYNKNGNAV [PGD1]
5. PVKVSGTIKKIEQFAMR [POP5]

[3.4, 3.27, 2.77, 2.77, 2.34]

Could you report protein stability index for every entry in the following list?
1. VLVGSCAYTGTGDVLLI [RPN1]
2. PNDSNDEKVTILVDSLT [SWI1]
3. SKRSKIDIINKLILHAI [YML103C/NUP188]
4. MLGRAGRPRYDTFGEGI [BRR2]

1: 3.41; 2: 3.01; 3: 1.04; 4: 3.15

* * *

# method: protein stability index of a GFP-peptide fusion (yeast GPS) (PSI 1-4); higher = more stable; sorted into four equal gates, so the index is relative within each strain
# studyConditions: san1∆
Kindly state protein stability index for each of the entries shown.

SGGNNTATIINNESSDD [PCI8] ... 2.69

For each listed entry, give its protein stability index.
1. DQLSTISMILRNISFSD [SWI1]
2. KESDLLEETRTTIGDTT [BRN1]
3. SLNYKFTTNKSKDVSRL [SRP21]
4. AITNTGPREDTTRVGGG [RPS5]
5. NRSEQNGQEQQGPVKNT [RGR1]
6. GISMFDYISGISVGLYD [SKI6]

1: 2.04; 2: 2.99; 3: 3.08; 4: 2.9; 5: 3.11; 6: 2.03

List the reported protein stability index of each sequence below.
1. STFENRNVGKTLVNKST [RPS1A]
2. EFIPHSTEYMMQFAKSK [RPN6]
3. SKVTVPPSKHSTLTLSD [ESC2]
4. TISVPQIRDVMERFSVL [RRP6]
5. EDLLECLDRCKEQYNRY [MTR3]
6. EQWLRQFEVSDDEKNDK [SNF2]

1: 3.09; 2: 2.8; 3: 2.9; 4: 2.5; 5: 3.24; 6: 3.17

For each of the sequences below, note its protein stability index.
1. STYRLEDVLSSFYRVEK [SSN2]
2. SVTRAGNIISSDKTIVP [SIN4]
3. NHFIFNVESAGAMTPEE [RPC40]
4. TMGGNAELELVDSLDPF [SMC4]
5. VVETITSLLNKVLKSGS [RRP42]

1. 1.87
2. 2.97
3. 2.4
4. 3.39
5. 2.54

List reported protein stability index for each of these sequences:
1. LSPSGHKTFLVANVKDL [RPL32]
2. AGNTTTGGGLFGSKPTG [YGL172W/NUP49]
3. PDLQFIVISLKNTMFEK [SMC1]

1: 2.84; 2: 2.64; 3: 3.01

* * *

# method: protein stability index of a GFP-peptide fusion (yeast GPS) (PSI 1-4); higher = more stable; sorted into four equal gates, so the index is relative within each strain
# studyConditions: ubr1∆
I would appreciate it if you labelled entries 1 (yes) when protein stability index is 3 or higher, otherwise 0 (no).

Tell me whether protein stability index is at least 3 here: SIVHINSQERVQDLGSA [SIR2]
0 (no)

Hi team, for GILYMGQGEQVDDVLET [RPN1] , is the recorded protein stability index at or above 3?
0 (no)

API: above_or_equal(metric=protein stability index, cutoff=3) for item RFNHLVTRLFFICSIIQ [YML031W/NDC1]
0 (no)

Entry QVPLQQTQAIAQQQQLS [YGR119C/NUP57] : is its protein stability index no less than 3?
0 (no)

Check this sequence for protein stability index at or above 3: TIKILPENTAMFNPLHE [YMR129W/POM152]
0 (no)

* * *

# method: protein stability index of a GFP-peptide fusion (yeast GPS) (PSI 1-4); higher = more stable; sorted into four equal gates, so the index is relative within each strain
# studyConditions: ubr1∆
Threshold check on protein stability index: at or above 2 gives Condition met, strictly below gives Condition not met.

VNYLISNTMYSVRLFSF [YJL039C/NUP192] ... Condition not met
EKVNNNATLTPNDSNDE [SWI1] ... Condition met
APNNSNGGSEEEITCAL [MED7] ... Condition met
MMTRRVVMAMYNPKMID [RET1] ... Condition met
DLVLQILEDTATMSVFL [RRI2] ... Condition met

Hi, just wondering whether FHKYRLKRNSWPKTRGV [RPL2A] shows protein stability index of 2 or higher.
Condition met

Hello, I need to know if ENFLKEVFQLRIFVKEI [GAL11] has measured protein stability index not below 2. Thanks!
Condition not met

Could you tell me if the measured protein stability index of LAPELNQAIWKRGVKGV [RPL31A] reaches 2 or more?
Condition not met

Does the sequence KPAFSFGINTNTTKTAD [YLR335W/NUP2] have recorded protein stability index that is 2 or more?
Condition met

Does the reported protein stability index for VVDTEETATLIMNELYR [SMC3] fall at or above the 2 mark?
Condition met

# check: protein stability index of MDKKILLNINGSRKVAG [SMX2] is greater than or equal to 2
Condition met

Is the recorded value of protein stability index equal to or greater than 2 for this sequence? LIGCIPYSKNAVEQLAG [YDL088C/ASM4]
Condition met

Hi, just wondering whether AQGTKFRISLGLPVGAI [RPL23A] shows protein stability index of 2 or higher.
Condition not met

Has CYVGLLTAIPILLEPIY [SNU114] a recorded protein stability index greater than or equal to 2?
Condition not met

Test whether the sequence HGDAAVLLVEKYGAEYD [NAS6] records protein stability index of 2 or higher.
Condition met

Threshold query (protein stability index >= 2) on PLPICHANSVVALTGLL [YML031W/NDC1]
Condition met

Entry IELLSDLINILEKKGFS [LIN1] : is its protein stability index no less than 2?
Condition not met

Check if protein stability index >= 2 (inclusive). Item: RLAKKPSMKKIKIEPSA [SIR3]
Condition met

Item EIRPEMLGHYLGEFSIT [RPS15] with protein stability index of 2 or above?
Condition met

Hello, I need to know if NSTATMQHNPLAGKRGP [PGD1] has measured protein stability index not below 2. Thanks!
Condition met

Please indicate if the recorded protein stability index for EFIPHSTEYMMQFAKSK [RPN6] meets or exceeds 2.
Condition not met

Does the reported protein stability index for ISSLFTITTILILGLNT [YML103C/NUP188] fall at or above the 2 mark?
Condition not met

Identify whether the reported protein stability index of the following sequence is 2 or greater: RTPVIISLRNNHKIIAR [SMD2]
Condition not met

Does the reported protein stability index for TRPYILERARDVNIVNR [YCG1] fall at or above the 2 mark?
Condition met

// inclusive: protein stability index at least 2? input: AVPRDELGRSNYGMIAI [FAS1]
Condition met

Would you say NTNPSPLKTQTKNGTPN [GAL11] shows protein stability index at minimum 2?
Condition met

Does MVLEATVLVIDNSEYSR [RPN10] have a reported protein stability index of at least 2?
Condition met

// data source = the supplement of paper PMC9732359
